Test system: MelJuSo cells
Experiment: Cell viability (CellTiter-Glo ATP content) in MelJuSo cells
Format: cell-based
Conditions: Homo sapiens, MEL-JUSO, 72 hours treatment, cell survival by CellTiter-Glo, 2% fetal bovine serum
Quantity Name: IC50

Reference set, count: 3
Ask: Entry CCCCC1C(c2ccc(F)cc2F)=NN(c2ccccc2)C1(C)C(=O)NCCCC(C)(C)CO (stereo not shown) [Compound 56] has what IC50?
Reply: 0.5 to 1 µM

Ask: Same question for CCCCC1C(c2ccc(F)cc2)=NN(c2ccccc2)C1(C)C(=O)NCc1ccc(O)c(OC)c1 (stereo not shown) [Compound 66] please.
Reply: > 2 µM

Ask: Another compound: CCCCC1C(c2ccc(Cl)cc2F)=NN(c2ccccc2)C1(C)C(=O)NCCOC (stereo not shown) [Compound 54]
Reply: > 2 µM

For each of the items listed, what is its IC50?
1. CCCCC1C(c2ccc(F)cc2)=NN(c2ccc(C)cc2)C1(C)C(=O)NCCCC(C)(C)CO (stereo not shown) [Compound 15]
2. CCCCC1C(c2ccc(F)cc2)=NN(c2ccccc2)C1(C)C(=O)NCCCCC(C)(C)O (stereo not shown) [Compound 2]
3. CCCCC1C(c2ccc(F)cc2)=NN(c2ccccc2)C1(C)C(=O)NCc1ccc(N(C)C)cc1 (stereo not shown) [Compound 48]
4. CON(C)C(=O)CNC(=O)C1(C)C(c2cccs2)C(c2ccc(F)cc2)=NN1c1ccc(F)cc1F (stereo not shown) [Compound 111]
5. CCCCC1C(c2ccc(F)cc2F)=NN(c2ccc(F)cc2F)C1(C)C(=O)NCCOC (stereo not shown) [Compound 90]
6. CCCCC1C(c2ccc(F)cc2)=NN(c2ccccc2)C1(C)C(=O)NCc1ccc(OC)cc1OC (stereo not shown) [Compound 46]
7. CCCCC1C(c2ccc(F)cc2)=NN(c2ccccc2)C1(C)C(=O)NCC(C)CN(C)C (stereo not shown) [Compound 77]

Reply:
1. 0.25 to 0.5 µM
2. 0.5 to 1 µM
3. > 2 µM
4. > 2 µM
5. < 0.25 µM
6. > 2 µM
7. > 2 µM

Recorded values, source patent US12227482B2.
